Consider the following molecules and their measured Papp B→A at 2 h readings.
# assay.remarks: Cell permeability, flux assay using Caco-2 cells
# condition.set: human, Caco-2
Form entry: value (×10⁻⁶ cm/s) — number only.

So what's the measured Papp B→A at 2 h for this one? CC(C)(C)[C@H](c1cc(-c2cc(F)ccc2F)cn1Cc1ccccc1)N(CCCN)C(=O)CSC[C@H](NC(=O)CCOCCOCCOCCOCCNC(=O)CCN1C(=O)CC(SC[C@H](N)C(=O)O)C1=O)C(=O)O.O=C(O)C(F)(F)F.O=C(O)C(F)(F)F (stereo partly drawn) 0.3

Returns the measured Papp B→A at 2 h for the input molecule. Input: CC(C)[C@H](NC(=O)CCNC(=O)[C@@H](N)CCN(C(=O)CO)[C@@H](c1nc(-c2cc(F)ccc2F)cn1Cc1ccccc1)C(C)(C)C)C(=O)N[C@@H](CCCNC(N)=O)C(=O)Nc1ccc(CC(=O)NCCN2C(=O)CC(SC[C@H](N)C(=O)O)C2=O)cc1 (stereo partly drawn) 0.15

Please find the next molecule below.
Which Papp B→A at 2 h reading was recorded for the molecule `CC(C)(C)[C@H](c1nc(-c2cc(F)ccc2F)cn1Cc1ccccc1)N(CC[C@H](N)CN)C(=O)CO.O=C(O)C(F)(F)F` ? 14
